From: ChEMBL document CHEMBL5365408

PROCEDURE_DETAILS: Cytotoxicity against rat Bone marrow cell assessed as inhibition of cell growth with (R)-4-(3H-[1,2,3]triazolo[4,5-b]pyridin-3-yl)-N-(3-chloropyridin-2-yl)-N-(piperidin-3-yl) benzamide as high potent effect standard by celltiter-glo assay
Format: toxicity, cell-based
RECORDED_CONDITIONS: rat, rat bone marrow cells
MEASURE_NAME: IC50 (µM)

* O=C(c1ccc(-n2nnc3cccnc32)cc1)N(c1ncccc1Cl)[C@@H]1CCCNC1 | 3.23
* O=C(c1ccc(-n2nnc3cccnc32)cc1)N(c1ncccc1C(F)(F)F)[C@@H]1CCCNC1 | 13.8
* O=C(c1ccc(-n2nnc3cccnc32)cc1)N(c1ncccc1Cl)[C@H]1CNC[C@H](c2ccccc2)C1 (racemic) | 12.5
* Cc1cccnc1N(C(=O)c1ccc(-c2cnn3cccnc23)cc1)[C@@H]1CCCNC1 | 18.2

* * *

ASSAYED_SYSTEM: Proprotein convertase subtilisin/kexin type 9 (Homo sapiens)
Sequence (Q8NBP7 31-152 limits assumed): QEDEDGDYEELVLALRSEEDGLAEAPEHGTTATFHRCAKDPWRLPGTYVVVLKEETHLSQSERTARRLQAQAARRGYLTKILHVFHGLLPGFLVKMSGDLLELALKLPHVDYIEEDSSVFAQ
Sequence (Q8NBP7 153-692 limits assumed): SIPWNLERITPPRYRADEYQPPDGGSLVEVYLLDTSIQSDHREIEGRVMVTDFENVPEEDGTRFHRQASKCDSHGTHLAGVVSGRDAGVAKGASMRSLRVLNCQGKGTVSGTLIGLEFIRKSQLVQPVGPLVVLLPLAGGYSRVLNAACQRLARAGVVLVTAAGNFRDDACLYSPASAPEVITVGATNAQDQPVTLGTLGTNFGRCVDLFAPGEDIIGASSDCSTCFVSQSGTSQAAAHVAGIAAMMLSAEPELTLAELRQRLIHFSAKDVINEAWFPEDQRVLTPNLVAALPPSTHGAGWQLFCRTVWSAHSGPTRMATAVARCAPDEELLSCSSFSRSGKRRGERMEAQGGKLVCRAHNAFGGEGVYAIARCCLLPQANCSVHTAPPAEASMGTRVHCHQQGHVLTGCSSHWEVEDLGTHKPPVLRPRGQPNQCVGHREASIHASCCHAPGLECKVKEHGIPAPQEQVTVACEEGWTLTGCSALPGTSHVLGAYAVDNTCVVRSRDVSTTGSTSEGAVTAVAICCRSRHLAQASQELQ
PROCEDURE_DETAILS: Inhibition of full length human PCSK9 expressed in human Huh-7 cells by ELISA analysis
pIC50: −log10 of the molar value.
MEASURE_NAME: pIC50

* O=C(c1ccc(-n2nnc3cccnc32)cc1)N(c1nccc2ccsc12)[C@@H]1CCCNC1 | 6.14
* Cn1ncc2ccnc(N(C(=O)c3ccc(-n4nnc5cccnc54)cc3)[C@@H]3CCCNC3)c21 | 6.21
* O=C(c1ccc(-n2nnc3cccnc32)cc1)N(c1nccc2c1CCCC2)[C@@H]1CCCNC1 | 5.64
* CCc1cccnc1N(C(=O)c1ccc(-c2cnn3cccnc23)cc1)[C@@H]1CCCNC1 | 5.48

* * *

PROCEDURE_DETAILS: Cytotoxicity against human CD34-positive cell assessed as reduction in cell growth by celltiter-glo assay
Type: toxicity, cell-based
RECORDED_CONDITIONS: human CD34-positive cells
MEASURE_NAME: IC50 (µM)

* O=C(c1ccc(-c2cnn3cccnc23)cc1)N(c1ncccc1C(F)(F)F)[C@@H]1CCCNC1 | 35.9
* Cc1cccnc1N(C(=O)c1ccc(-c2cnn3cccnc23)cc1)[C@@H]1CCCNC1 | 13.6

* * *

PROCEDURE_DETAILS: Half life in Sprague-Dawley rat at 1 mg/kg, iv
Format: ADME, organism-based
RECORDED_CONDITIONS: in vivo
MEASURE_NAME: half-life (h)

* Cc1cccnc1N(C(=O)c1ccc(-c2cnn3cccnc23)cc1)[C@@H]1CCCNC1 | 1.7

* * *

ASSAYED_SYSTEM: CYP2D6 (Homo sapiens)
Sequence (P10635 whole entry): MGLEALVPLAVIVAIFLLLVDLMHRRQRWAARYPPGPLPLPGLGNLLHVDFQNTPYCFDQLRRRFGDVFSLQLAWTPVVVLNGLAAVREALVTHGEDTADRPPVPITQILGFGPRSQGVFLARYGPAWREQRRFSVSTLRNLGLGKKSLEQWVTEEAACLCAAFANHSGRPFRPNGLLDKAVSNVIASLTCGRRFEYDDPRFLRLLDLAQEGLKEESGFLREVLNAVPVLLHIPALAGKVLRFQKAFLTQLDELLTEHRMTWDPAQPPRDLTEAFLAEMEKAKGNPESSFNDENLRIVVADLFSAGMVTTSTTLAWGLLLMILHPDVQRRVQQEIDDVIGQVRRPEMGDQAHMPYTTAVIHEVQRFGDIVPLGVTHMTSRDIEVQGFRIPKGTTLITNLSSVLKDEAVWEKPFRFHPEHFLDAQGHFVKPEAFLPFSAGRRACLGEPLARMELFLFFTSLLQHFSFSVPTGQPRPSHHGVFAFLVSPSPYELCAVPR
PROCEDURE_DETAILS: Inhibition of CYP2D6 (unknown origin) at 3 uM relative to control
Type: ADME
MEASURE_NAME: inhibition at 3 µM

• O=C(c1ccc(-c2cnn3cccnc23)cc1)N(c1ncccc1C(F)(F)F)[C@@H]1CCCNC1 = < 40%
• Cc1cccnc1N(C(=O)c1ccc(-c2cnn3cccnc23)cc1)[C@@H]1CCCNC1 = < 5%

* * *

Listed next: entries and their corresponding log10(IC50).
PROCEDURE_DETAILS: Cytotoxicity against rat Bone marrow cell assessed as inhibition of cell growth with puromycin as high potent effect standard by celltiter-glo assay
Format: toxicity, cell-based
RECORDED_CONDITIONS: rat bone marrow cells
MEASURE_NAME: log10(IC50) (log10 of the value in nM)

* O=C(c1ccc(-c2cnn3cccnc23)cc1)N(c1ncccc1-c1ccccc1)[C@@H]1CCCNC1 | 3.64
* O=C(c1ccc(-n2nnc3cccnc32)cc1)N(c1ncccc1Cl)[C@@H]1CCCNC1 | 3.06
* Cc1nccnc1N(C(=O)c1ccc(-n2nnc3cccnc32)cc1)[C@@H]1CCCNC1 | 3.37
* Cc1cccnc1N(C(=O)c1ccc(-c2cnn3cccnc23)cc1)[C@@H]1CCCNC1 | 4.23
* O=C(c1ccc(-n2nnc3cccnc32)cc1)N(c1nccc2c1CCCC2)[C@@H]1CCCNC1 | 2.61
* Cc1ccnc(N(C(=O)c2ccc(-n3nnc4cccnc43)cc2)[C@@H]2CCCNC2)c1Cl | 2.58
* Cn1ccc2ccnc(N(C(=O)c3ccc(-n4nnc5cccnc54)cc3)[C@@H]3CCCNC3)c21 | 1.60
* Cc1cccnc1N(C(=O)c1ccc(-n2nnc3cccnc32)cc1)[C@@H]1CCCNC1 | 3.00
